- Test summary: ATG_GLI_CIS: Attagene CIS-FACTORIAL HepG2 Assay for human Zinc Finger Protein GLI1 (AID 2282945)
- Settings: HepG2, Attagene cis-factorial reporter mRNA, GLI element; actives raise or lower the signal
Calls of active or inactive are those of the source. Rule for the calls: active = hit-call score of the fitted dose curve at least 0.9, where 1 is the maximum; inactive = score below 0.9.
Answer with one of the outcomes given here: active, inactive

Observe how each entry below is paired with its result.
Compound	Category
Cc1ccccc1S(=O)(=O)O	inactive
COc1ccc2ccccc2c1	inactive
O=C(O)Cc1c[nH]c2ccccc12	inactive
CC(=O)Nc1c(I)c(NC(C)=O)c(I)c(C(=O)O)c1I	inactive
CC(C)n1c(/C=C/[C@@H](O)C[C@@H](O)CC(=O)O)c(-c2ccc(F)cc2)c2ccccc21	inactive

Task: Please state the recorded outcome for this compound: CC[N+](CC)(CC(=O)Nc1c(C)cccc1C)Cc1ccccc1 (tested in a mixture with another compound)
Output: inactive

Task: Please state the recorded outcome for this compound: CCCOCCC
Output: inactive

Task: Please state the recorded outcome for this compound: Cc1ccccc1S(N)(=O)=O
Output: inactive

Task: Please state the recorded outcome for this compound: C=CCOCC(CC)(CO)COCC=C
Output: inactive

Task: Please state the recorded outcome for this compound: CC/C=C/CCO
Output: inactive

Task: Please state the recorded outcome for this compound: COc1c2occc2cc2ccc(=O)oc12
Output: inactive

Task: Please state the recorded outcome for this compound: CCCCCC[C@@H](O)C/C=C\CCCCCCCC(=O)O
Output: inactive
